Source listed as ChEMBL document CHEMBL3045094.

Test system: Bacopa monnieri
Test: Toxicity against Bacopa monnieri assessed as shoot elongation at 50 ug/ml after 15 days by Bacopa sensor test (reference value: 0.8 cm)
Format: organism-based
Conditions: in vivo, 360 h
# key: entry, value: Activity

{"compound": "COc1cccc2c1C(=O)c1c(O)c3c(c(O)c1C2=O)C[C@@](O)(C(=O)CO)C[C@@H]3O[C@H]1C[C@H](N)[C@H](O)[C@H](C)O1", "units_label": "cm", "Activity": 0.2}
{"compound": "COC(=O)C1=CO[C@@H](O[C@@H]2O[C@H](COC(=O)c3cc(OC)c(OC)c(OC)c3)[C@@H](OC(C)=O)[C@H](OC(C)=O)[C@H]2OC(C)=O)[C@@H]2[C@@H](C)[C@@H](OC(C)=O)C[C@H]12", "units_label": "cm", "Activity": 0.4}
{"compound": "COC(=O)C1=CO[C@@H](O[C@@H]2O[C@H](CO)[C@@H](O)[C@H](O)[C@H]2O)[C@@H]2[C@@H](C)[C@@H](O)C[C@H]12", "units_label": "cm", "Activity": 0.4}
{"compound": "COC(=O)C1=CO[C@@H](O[C@@H]2O[C@H](COC(=O)C=C(C)C)[C@@H](OC(C)=O)[C@H](OC(C)=O)[C@H]2OC(C)=O)[C@@H]2[C@@H](C)[C@@H](OC(C)=O)C[C@H]12", "units_label": "cm", "Activity": 0.4}
